- Test system: IA-LM
- assay.info: relative viability (nuclei count vs DMSO), 5 days (fraction); higher = more cells survive
- details: first compound 0.253 µM
Binary label based on relative viability with cut-off 0.8: below gives Met, not below gives Not met.

>  <compound>
Oc1nc(-c2ccc(C(F)(F)F)cc2)nc2c1CSCC2 [XAV939] + COc1cc2c(Oc3ccc(NC(=O)C4(C(=O)Nc5ccc(F)cc5)CC4)cc3F)ccnc2cc1OCCCN1CCOCC1 [Foretinib] (partner 0.25 µM)

>  <assigned.class>
Not met

$$$$
>  <compound>
C=C1C(=O)O[C@@H](CCCCCCCC)[C@@H]1C(=O)O [C-75] + CS(=O)(=O)N1CCN(Cc2cc3nc(-c4cccc5[nH]ncc45)nc(N4CCOCC4)c3s2)CC1 [Pictilisib] (partner 1 µM)

>  <assigned.class>
Met

$$$$
>  <compound>
Oc1nc(-c2ccc(C(F)(F)F)cc2)nc2c1CSCC2 [XAV939] + C[C@@H](Oc1cc(-c2cnn(C3CCNCC3)c2)cnc1N)c1c(Cl)ccc(F)c1Cl [Crizotinib] (partner 1 µM)

>  <assigned.class>
Not met

$$$$
>  <compound>
Oc1nc(-c2ccc(C(F)(F)F)cc2)nc2c1CSCC2 [XAV939] + O=C(c1cc(Cc2n[nH]c(=O)c3ccccc23)ccc1F)N1CCN(C(=O)C2CC2)CC1 [Olaparib] (partner 8 µM)

>  <assigned.class>
Met

$$$$
>  <compound>
Oc1nc(-c2ccc(C(F)(F)F)cc2)nc2c1CSCC2 [XAV939] + CS(=O)(=O)CCNCc1ccc(-c2ccc3ncnc(Nc4ccc(OCc5cccc(F)c5)c(Cl)c4)c3c2)o1 [Lapatinib] (partner 2 µM)

>  <assigned.class>
Met

$$$$
